- Tested on: HT29 colon
- Measurement protocol: NCI tumour cell line growth inhibition, 48 h
Can you tell me TGI for the items I'm about to list?

Worked examples follow.
| Compound | Readout label | Result |
| --- | --- | --- |
| O=C1CC2C(=O)c3ccccc3CC2c2ccccc21 (stereo unspecified) | TGI | > 100 µM |
| CN1C/C(=C\c2cccs2)C(O)/C(=C/c2cccs2)C1 (stereo unspecified) | TGI | > 100 µM |

Field: TGI. Fill in for each record below.
1. CCNc1cc(-c2cccc(OC(F)(F)F)c2)nc2ccc(N3CCCC3)cc12
2. O=C(N/N=C/c1cc(Cl)cc(Cl)c1[O-])c1ccccc1O.O=C(N/N=C/c1cc(Cl)cc(Cl)c1[O-])c1ccccc1O.[Co+2]
3. C=C1C(=O)OC2C/C(C)=C/CC/C(C)=C/CCC3(COC(C)=O)OC3CC12 (stereo unspecified)

["10.3 µM", "17.4 µM", "24.1 µM"]

// batch mode: one TGI value per listed entry
1. CCNC(=O)COc1ccc(Br)cc1Br
2. C/C(=N\N=C(\N)SB(F)F)c1ccc2ccccc2c1
3. CCP(=O)(CC)C(Cl)Cl
4. O=c1cc(CO)oc2c3c(cc(O)c12)OCC(COC1OC(CO)C(O)C(O)C1O)=CC3 (stereo unspecified)
5. N/N=C1\C(=O)N(C2CCCCCC2)C(=O)C1C(=O)NC1CCCCCC1 (stereo unspecified)
6. O=C(O)c1ccc(NCn2nc(-c3ccccc3O)oc2=S)cc1
7. COc1ccc(-n2c(N)c(C#N)[nH]c2=O)cc1
8. NC(=S)/N=C(/c1nc2ccc(Cl)cc2[nH]c1=O)C(O)c1ccccc1Cl (stereo unspecified)

["> 100 µM", "> 100 µM", "> 100 µM", "> 100 µM", "> 100 µM", "> 100 µM", "> 10 µM", "> 100 µM"]
